target: Solute carrier family 2, facilitated glucose transporter member 4 (Rattus norvegicus); test: Induction of GLUT4 translocation in rat L6-GLUT4myc skeletal muscle cells assessed as translocation to cell surface by measuring fold stimulation at 10 uM measured after 16 hrs by antibody-coupled colorimetric assay; assay type: cell-based; conditions: filed as activator
QUANTITY_KIND: fold change (FC)

CC1=C(C(=O)Nc2ccc(-c3nc4ccccc4c(=O)n3C)cc2)C(c2ccccc2Cl)NC(=O)N1 (stereo not drawn) :: 1.51
CCn1c(-c2ccc(NC(=O)C3=C(C)NC(=O)NC3c3ccco3)cc2)nc2ccccc2c1=O (stereo not drawn) :: 1.32
CC1=C(C(=O)Nc2ccc(-c3nc4cccc(Cl)c4c(=O)n3C)cc2)C(c2ccc(Cl)cc2Cl)NC(=O)N1 (stereo not drawn) :: 1.15

1 = CC1=C(C(=O)Nc2ccc(-c3nc4ccccc4c(=O)n3C)cc2)C(c2cccc(Cl)c2)NC(=O)N1 (stereo not drawn)
2 = CC1=C(C(=O)Nc2cccc(-c3nc4ccccc4c(=O)n3C)c2)C(c2ccc(Cl)cc2)NC(=O)N1 (stereo not drawn)
Input: For the pair 1 and 2 , which member has the lower fold change (FC) number? Identify your pick by its label.
Output: 2
(2: 1.17, 1: 1.92)

1 = CC1=C(C(=O)Nc2cccc(-c3nc4ccccc4c(=O)n3C)c2)C(c2ccc([N+](=O)[O-])cc2)NC(=O)N1 (stereo not drawn)
2 = CC1=C(C(=O)Nc2ccc(-c3nc4ccccc4c(=O)n3C)cc2)C(c2ccc(Cl)cc2Cl)NC(=O)N1 (stereo not drawn)
Input: For the pair 1 and 2 , which member has the lower fold change (FC) number? Identify your pick by its label.
Output: 1
(1: 1, 2: 2.52)
